target: Cyclin-dependent kinase 4 (Homo sapiens); assay: Biological Assay: An assay for monitoring CDK4/cyclin D1-catalyzed phosphorylation of pRb at the Ser780 site was performed using TR-FRET in a 384-well format, and was used for IC50 determination and kinetic analysis. The reaction was carried out in a 30 uL volume containing 0.3 nM CDK4/cyclin D1, 150 nM biotin-pRb (773-924), 3 uM ATP, and 1.3% DMSO (or compound in DMSO) in the assay buffer (50 mM HEPES-Na, pH 7.5; 5 mM MgCl2, 1 mM DTT, 0.02% Tween-20, and 0.05% BSA). 3 uM ATP was added last to initiate the reaction. The reaction was quenched with 10 uL of 240 mM EDTA-Na (pH 8.0) after 60 min incubation at 22 C. The signal was developed by the addition of 40 uL detection solution containing 40 nM SA-APC, 143 ng/mL anti-phospho-pRb (S780) antibody, and 1 nM Eu-W1024 anti-rabbit IgG antibody in the detection buffer (50 mM HEPES-Na, pH 7.5, 60 mM EDTA-Na, pH 8.0, 0.05% BSA, and 0.1% Triton X-100). After 60 min incubation in the dark, the plate was read on Envision.
Sequence (P11802 whole entry): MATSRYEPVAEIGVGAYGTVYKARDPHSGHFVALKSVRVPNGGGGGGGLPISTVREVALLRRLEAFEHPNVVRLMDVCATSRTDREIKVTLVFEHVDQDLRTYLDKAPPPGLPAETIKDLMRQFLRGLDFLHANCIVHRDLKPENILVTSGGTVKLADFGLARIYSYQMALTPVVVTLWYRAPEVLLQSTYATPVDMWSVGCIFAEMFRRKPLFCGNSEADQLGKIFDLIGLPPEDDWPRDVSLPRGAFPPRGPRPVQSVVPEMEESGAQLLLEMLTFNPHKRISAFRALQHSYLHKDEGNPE
Quantity: pIC50
A value of pIC50 is the negative decimal logarithm of a concentration given in moles per litre.

Task: Return reported pIC50; argument: CN(C)C(=O)c1cc2cnc(Nc3ccc(N4CC5CCC(CC4=O)N5)cn3)nc2n1-c1ccc(C(C)(C)C#N)cc1 (stereo unspecified)
Output: 8.30

###

biological target: Cyclin-dependent kinase 1 (Homo sapiens); experiment: IMAP-FP (Molecular Devices Trade Mark Technology) Endpoint Assay: A 384-well microtiter IMAP-FP (Molecular Devices Trade Mark Technology) endpoint assay was used for CDK1/cyclin B kinase activity measurements. The same assay was used for IC50 determination of small molecule inhibitors. In general, the kinase reactions were carried out in 20 uL volumes in the reaction solution, which is composed of 2 uL compound (in 20% DMSO), 8 uL CDK1/cyclin B in the 1x Reaction Buffer (Molecular Devices, Cat. No. R8139), 10 uL substrate mixture of Tamra Histone-H1 peptide (Molecular Devices, Cat. No. R7384) and ATP (Amersham Pharmacia, Cat. No. 27-2056-01) in the 1x Reaction Buffer with 1 mM DTT freshly added. The final reaction mixture contains compound (inhibitor) with the concentration varying from 0.005-10 uM, 2% DMSO, 0.25 nM CDK1/cyclin B, 100 nM Tamra Histone-H1 peptide, and 20 uM ATP.All reactions were run at room temperature in black 384-well flat-bottom Costar plates (Corning, Cat. No. 3710) for 120 min then were quenched.
Sequence (P06493 whole entry): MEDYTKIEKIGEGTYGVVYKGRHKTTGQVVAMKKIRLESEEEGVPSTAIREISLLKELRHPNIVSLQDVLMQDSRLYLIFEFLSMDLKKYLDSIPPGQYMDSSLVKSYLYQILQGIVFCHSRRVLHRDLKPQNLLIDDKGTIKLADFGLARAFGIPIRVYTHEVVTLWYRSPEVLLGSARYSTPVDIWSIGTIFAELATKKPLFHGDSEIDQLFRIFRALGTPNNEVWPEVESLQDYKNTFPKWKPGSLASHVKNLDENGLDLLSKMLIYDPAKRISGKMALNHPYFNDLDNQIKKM
pIC50: −log10 of the molar value.
Quantity: pIC50

Task: Form field: reported pIC50 of CN(C)C(=O)c1cc2cnc(Nc3ccc(N4CC5CCC(CC4=O)N5)cn3)nc2n1-c1ccc(C(C)(C)C#N)cc1 (stereo unspecified)
Output: < 4.82
